# measurement description: Drug metabolism study in rats, oral administration
# conditions: rat, plasma, po, 5 mg/kg
value kind: Tmax (min)

- smiles input: "C[C@@H](Nc1ccn2ncc(-c3cnn(C)c3)c2n1)c1cc(F)ccc1OCC(F)F"
  unit annotation: "min"
  Tmax: 40.2

1. C[C@@H](Nc1ccn2ncc(-c3cnn(CCO)c3)c2n1)c1cc(F)ccc1OCC(F)(F)F
2. C[C@@H](Nc1ccn2ncc(-c3cn[nH]c3)c2n1)c1cc(F)ccc1OCC(F)(F)F
3. C[C@@H](Nc1ccn2ncc(-c3cn[nH]c3)c2n1)c1cc(F)ccc1OCC(F)F
q: Order the records by Tmax, with each subsequent value no larger than the one before. Quick reminder: the answer is the labels in the order asked.
a: 2, 3, 1

* * *

# measurement target: UniProt Q16288
pIC50: −log10 of the molar value.
value kind: pIC50

1. C[C@@H](Nc1ccn2ncc(-c3cnn(C4CCCCO4)c3)c2n1)c1cc(F)ccc1OCC(F)F (stereo partly shown)
2. CC(Nc1ccn2ncc(-c3cn[nH]c3)c2n1)c1cc(F)ccc1OCCCF (stereo not shown)
q: Pick one, 1 or 2 : lowest reported pIC50. Respond using the label that marks the chosen record.
a: 2

P. CC(Nc1ccn2ncc(-c3cnn(C)c3)c2n1)c1cc(F)ccc1OC1CCOC1 (stereo not shown)
Q. CC(Nc1ccn2ncc(-c3cn[nH]c3)c2n1)c1ccccc1OCC(F)F (stereo not shown)
q: Pick one, P or Q : lowest reported pIC50. Respond using the label that marks the chosen record.
a: Q
(Q: 7.91, P: 8.15)

* * *

# measurement description: Drug metabolism study in rats, intravenous administration
# conditions: rat, plasma, iv, 1 mg/kg
value kind: clearance (mL/min/kg)

- smiles input: "C[C@@H](Nc1ccn2ncc(-c3cn[nH]c3)c2n1)c1cc(F)ccc1OCC(F)F"
  unit annotation: "mL/min/kg"
  clearance: 38.5

P. C[C@@H](Nc1ccn2ncc(-c3cnn(C)c3)c2n1)c1cc(F)ccc1OCC(F)F
Q. C[C@@H](Nc1ccn2ncc(-c3cn[nH]c3)c2n1)c1cc(F)ccc1OCC(F)(F)F
q: Pick one, P or Q : lowest reported clearance. Respond using the label that marks the chosen record.
a: Q

* * *

# measurement target: TRKC-G623R (Homo sapiens, UniProt Q16288, G623R)
# Sequence (Q16288 32-839 G623R): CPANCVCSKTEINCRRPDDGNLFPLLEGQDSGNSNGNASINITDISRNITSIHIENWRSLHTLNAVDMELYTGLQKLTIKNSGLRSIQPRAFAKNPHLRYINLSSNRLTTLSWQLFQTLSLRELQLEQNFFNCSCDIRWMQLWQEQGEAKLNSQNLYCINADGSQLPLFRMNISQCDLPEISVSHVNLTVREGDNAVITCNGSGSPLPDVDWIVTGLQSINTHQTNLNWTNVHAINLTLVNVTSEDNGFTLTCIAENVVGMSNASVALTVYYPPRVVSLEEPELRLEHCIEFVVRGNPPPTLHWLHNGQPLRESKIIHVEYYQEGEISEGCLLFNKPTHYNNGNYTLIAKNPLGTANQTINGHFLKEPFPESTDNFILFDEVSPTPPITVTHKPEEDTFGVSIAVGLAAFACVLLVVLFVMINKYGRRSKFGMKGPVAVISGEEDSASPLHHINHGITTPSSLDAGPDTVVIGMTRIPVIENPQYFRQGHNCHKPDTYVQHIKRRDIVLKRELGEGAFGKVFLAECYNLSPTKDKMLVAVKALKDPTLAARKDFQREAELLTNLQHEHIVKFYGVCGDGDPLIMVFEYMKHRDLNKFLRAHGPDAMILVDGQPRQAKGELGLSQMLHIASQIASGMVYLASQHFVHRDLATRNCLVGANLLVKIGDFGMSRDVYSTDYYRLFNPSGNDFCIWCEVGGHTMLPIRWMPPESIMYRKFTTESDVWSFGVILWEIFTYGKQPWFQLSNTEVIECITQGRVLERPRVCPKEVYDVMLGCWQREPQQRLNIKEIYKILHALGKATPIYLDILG
# measurement description: TRK kinase mutant inhibition (HTRF), TRKC-G623R
value kind: IC50 (nM)

- smiles input: "C[C@@H](Nc1ccn2ncc(-c3cnn(CCO)c3)c2n1)c1cc(F)ccc1OCC(F)F"
  IC50 [nM]: 0.61

P. C[C@@H](Nc1ccn2ncc(-c3cn[nH]c3)c2n1)c1cc(F)ccc1OCC(F)F
Q. C[C@@H](Nc1ccn2ncc(-c3cnn(C)c3)c2n1)c1cc(F)ccc1OCC(F)(F)F
q: Select the item with the higher value of IC50 from the options P and Q listed. Respond using the label that marks the chosen record.
a: Q

* * *

# measurement target: TRKC (Homo sapiens)
# Construct: purchased Carna Biosciences 08-197
# Sequence (Q16288 32-825 isoform Q16288-3 limits assumed): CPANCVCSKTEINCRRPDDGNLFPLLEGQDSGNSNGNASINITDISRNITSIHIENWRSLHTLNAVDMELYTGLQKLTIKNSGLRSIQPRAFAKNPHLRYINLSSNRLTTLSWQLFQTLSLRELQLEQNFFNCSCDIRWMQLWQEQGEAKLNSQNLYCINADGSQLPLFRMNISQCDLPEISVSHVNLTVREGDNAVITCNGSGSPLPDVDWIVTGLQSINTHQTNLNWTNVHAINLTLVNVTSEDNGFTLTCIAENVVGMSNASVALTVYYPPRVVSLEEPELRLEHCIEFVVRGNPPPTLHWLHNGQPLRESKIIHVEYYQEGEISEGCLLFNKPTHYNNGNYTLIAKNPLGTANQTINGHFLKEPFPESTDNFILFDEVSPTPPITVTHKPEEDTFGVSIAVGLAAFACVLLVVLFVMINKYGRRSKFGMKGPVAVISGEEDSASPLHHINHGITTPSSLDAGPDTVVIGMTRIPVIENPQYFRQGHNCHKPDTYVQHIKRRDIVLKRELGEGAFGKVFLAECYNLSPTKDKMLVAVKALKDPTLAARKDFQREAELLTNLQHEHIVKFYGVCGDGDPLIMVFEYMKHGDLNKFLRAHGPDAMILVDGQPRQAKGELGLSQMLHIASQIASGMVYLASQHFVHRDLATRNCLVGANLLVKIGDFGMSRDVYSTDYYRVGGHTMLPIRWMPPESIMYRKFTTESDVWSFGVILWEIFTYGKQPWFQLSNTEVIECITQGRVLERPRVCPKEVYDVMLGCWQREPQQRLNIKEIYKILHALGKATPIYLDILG
# measurement description: In vitro biochemical HTRF KinEASE kinase inhibition, TRKC
# conditions: wild-type kinase, final ATP 2.526 μmol/L
value kind: IC50 (nM)

Examples with their reported IC50 follow.
- molecule: "CC(Nc1ccn2ncc(-c3cn[nH]c3)c2n1)c1cc(F)ccc1OCF (stereo not drawn)"
  measurement target: "TRKC (Homo sapiens)"
  unit annotation: "nM"
  IC50: 15.5
- molecule: "CC(=O)n1cc(-c2cnn3ccc(N[C@H](C)c4cc(F)ccc4OCC(F)F)nc23)cn1"
  measurement target: "TRKC (Homo sapiens)"
  unit annotation: "nM"
  IC50: 4.7
- molecule: "C[C@@H](Nc1ccn2ncc(-c3cnn(C)c3)c2n1)c1cc(F)ccc1OCCF"
  measurement target: "TRKC (Homo sapiens)"
  unit annotation: "nM"
  IC50: 15.1

P. CC(Nc1ccn2ncc(-c3cn[nH]c3)c2n1)c1cc(F)cc(F)c1OCC(F)F (stereo not drawn)
Q. C[C@@H](Nc1ccn2ncc(-c3cnn(C)c3)c2n1)c1cc(F)ccc1OC(F)F
q: Select the item with the higher value of IC50 from the options P and Q listed. Respond using the label that marks the chosen record.
a: P
(P: 6.7 nM, Q: 3.5 nM)

Data origin: patent US20220177477A1
